# assay.notes: Quantitative highthroughput screen to assess conditional lethalithy of NOMO1 cells grown in Human Plasma-Like Medium with dialyzed fetal bovine serum (HPLM+ds) (AID 1963878); further: nearly all actives have a fitted effect of over 35% in size; further: potency means the concentration at half of the fitted maximal effect
# stated.conditions: NOMO1 AML cells in HPLM+ds, CellTiter-Glo viability, 48 h; series mostly up to 45.8 µM
Results filed as inconclusive are left out. Active and inactive are the calls of the source. The call rests on the fitted dose curve; in most records, active means well fitted cell-killing curve with a large enough effect; inconclusive means small, poorly fitted or top-dose-only effect, or effect the other way; inactive means no such curve, though single readings can be large or run the other way.
test.readout: Potency

Examples from the recorded data:
| compound | Potency |
| --- | --- |
| CNc1nc(Nc2ccc(C(=O)N3CCOCC3)cc2OC)ncc1Cl | inactive |
| COc1cc2ncn(-c3cc(OCc4ccccc4S(C)(=O)=O)c(C#N)s3)c2cc1OC | inactive |
| N=C1SC(=Cc2ccc(-c3ccc4c(c3)C(=O)NC4=O)o2)C(=O)N1c1ccc(Br)cc1 | inactive |
| C[C@]12CCC(=O)C=C1[C@@H]1CC1[C@H]1[C@H]3[C@@H]4C[C@H]4[C@@]4(CCC(=O)O4)[C@@]3(C)CC[C@H]12 (some centres undefined) | inactive |

Input CC(C)CC(=O)Nc1n[nH]c2c1CN(C(=O)C1CCN(C)CC1)C2(C)C . Output Potency: 6.62 µM (active)

Input CCOC(=O)C1=C(C)NC(=S)NC1c1cccc(O)c1 (centres undefined) . Output Potency: 0.235 µM (active)

Input Oc1cccc(-c2nc(N3CCOCC3)c3oc4ncccc4c3n2)c1 . Output Potency: inactive
